For each entry below, report its Relative Fluorescence Units (RFU) value.
Biological target: T1, I-TAC (CXCL11) (UniProt O14625 22-94)
T1 construct: Bought chemokine; also called I-TACK
T1 sequence (looked up): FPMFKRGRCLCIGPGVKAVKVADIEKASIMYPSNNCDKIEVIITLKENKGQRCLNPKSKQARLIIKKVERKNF
Assay: micro-array, phage-presented peptide on printed CK

{"BINDER": "DYDYGAPC [Phage-Presented Peptide 30 (Ph-p30)]", "Relative Fluorescence Units (RFU)": "> 15000 RFU"}
{"BINDER": "NAMCK [Phage-Presented Peptide 8.11 (Ph-p8.11)]", "Relative Fluorescence Units (RFU)": "> 10000 RFU"}
{"BINDER": "WVFGSGLCK [Phage-Presented Peptide 15 (Ph-p15)]", "Relative Fluorescence Units (RFU)": "> 15000 RFU"}

query: Quick one: Relative Fluorescence Units (RFU) for DRYLNIVHAT [Phage-Presented Peptide 18 (Ph-p18)] ?
result: > 9000 RFU
